# Assay comment: Cyto-toxicity (MTT assay)
# Format: cell-based
# Applied conditions: 0.01 μM; MTT, 4 days (Table 3A); read-out: Cytotoxicity % viability
Structures can show the parent of a compound that is named as a salt.

{"Molecule": "CC(C)C1=C2[C@H]3CC[C@@H]4[C@@]5(C)CC[C@H](OC(=O)[C@H]6C[C@@H](C(=O)O)C6(C)C)C(C)(C)[C@@H]5CC[C@@]4(C)[C@]3(C)CC[C@@]2(NC(=O)C(C)(C)NC(=O)[C@H]2CCCNC2)CC1=O [Example 52, hydrochloride]", "Unit name": "%", "viability at 4 days, 0.01 µM": 59}

* * *

Measured viability at 4 days, 1 µM values are reported for all entries that follow.
# Assay comment: Cyto-toxicity (MTT assay)
# Format: cell-based

{"Mol smiles": "CC(C)C1=C2[C@H]3CC[C@@H]4[C@@]5(C)CC[C@H](OC(=O)[C@H]6C[C@@H](C(=O)O)C6(C)C)C(C)(C)[C@@H]5CC[C@@]4(C)[C@]3(C)CC[C@@]2(NC(=O)C(C)(C)NC(=O)CN2CCCCC2)CC1=O", "viability at 4 days, 1 µM / %": 0}
{"Mol smiles": "CC(C)C1=C2[C@H]3CC[C@@H]4[C@@]5(C)CC[C@H](OC(=O)[C@H]6C[C@@H](C(=O)O)C6(C)C)C(C)(C)[C@@H]5CC[C@@]4(C)[C@]3(C)CC[C@@]2(NC(=O)C(C)(C)NC(=O)c2ccc3[nH]cnc3c2)CC1=O", "viability at 4 days, 1 µM / %": 3}
{"Mol smiles": "CC(C)C1=C2[C@H]3CC[C@@H]4[C@@]5(C)CC[C@H](OC(=O)[C@H]6C[C@@H](C(=O)O)C6(C)C)C(C)(C)[C@@H]5CC[C@@]4(C)[C@]3(C)CC[C@@]2(NC(=O)C2(NC(=O)c3ccc(Cl)cc3)CCCCC2)CC1=O", "viability at 4 days, 1 µM / %": 4}
{"Mol smiles": "CC(C)C1=C2[C@H]3CC[C@@H]4[C@@]5(C)CC[C@H](OC(=O)[C@H]6C[C@@H](C(=O)O)C6(C)C)C(C)(C)[C@@H]5CC[C@@]4(C)[C@]3(C)CC[C@@]2(NC(=O)C(C)(C)NC(=O)c2ccco2)CC1=O", "viability at 4 days, 1 µM / %": 0}
